experiment: Cytotoxicity against human HCT-116 cells assessed as cell viability at 5 uM after 3 days relative to control; assay type: cell-based; details: time 3 day, read-out: Activity
reported metric: viability at 72 h, 5 µM (%)
Quick reminder: number only, in %, skip the unit.

Enquiry: Supply measured viability at 72 h, 5 µM of `COc1ccc2nc3cc(Cl)ccc3c(Nc3ccc(O)c(CN4CCN(C)CC4)c3)c2c1` in your reply.
Return: 35

* * *

target: DNA excision repair protein ERCC-1/DNA repair endonuclease XPF (Homo sapiens, UniProt P07992+Q92889); assay: Binding affinity to His-tagged human ERCC1-XPF expressed in Escherichia coli BL21 (DE3) cells by steady-state fluorescence assay
Sequence (P07992 whole entry): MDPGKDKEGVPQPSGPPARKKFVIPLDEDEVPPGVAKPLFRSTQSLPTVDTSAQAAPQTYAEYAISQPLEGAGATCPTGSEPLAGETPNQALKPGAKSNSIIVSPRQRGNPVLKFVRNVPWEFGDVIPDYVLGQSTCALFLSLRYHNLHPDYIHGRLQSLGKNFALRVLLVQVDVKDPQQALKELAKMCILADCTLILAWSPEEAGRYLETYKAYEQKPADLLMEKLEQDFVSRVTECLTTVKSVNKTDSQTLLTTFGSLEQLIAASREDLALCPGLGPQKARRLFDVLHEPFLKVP
Sequence (Q92889 whole entry): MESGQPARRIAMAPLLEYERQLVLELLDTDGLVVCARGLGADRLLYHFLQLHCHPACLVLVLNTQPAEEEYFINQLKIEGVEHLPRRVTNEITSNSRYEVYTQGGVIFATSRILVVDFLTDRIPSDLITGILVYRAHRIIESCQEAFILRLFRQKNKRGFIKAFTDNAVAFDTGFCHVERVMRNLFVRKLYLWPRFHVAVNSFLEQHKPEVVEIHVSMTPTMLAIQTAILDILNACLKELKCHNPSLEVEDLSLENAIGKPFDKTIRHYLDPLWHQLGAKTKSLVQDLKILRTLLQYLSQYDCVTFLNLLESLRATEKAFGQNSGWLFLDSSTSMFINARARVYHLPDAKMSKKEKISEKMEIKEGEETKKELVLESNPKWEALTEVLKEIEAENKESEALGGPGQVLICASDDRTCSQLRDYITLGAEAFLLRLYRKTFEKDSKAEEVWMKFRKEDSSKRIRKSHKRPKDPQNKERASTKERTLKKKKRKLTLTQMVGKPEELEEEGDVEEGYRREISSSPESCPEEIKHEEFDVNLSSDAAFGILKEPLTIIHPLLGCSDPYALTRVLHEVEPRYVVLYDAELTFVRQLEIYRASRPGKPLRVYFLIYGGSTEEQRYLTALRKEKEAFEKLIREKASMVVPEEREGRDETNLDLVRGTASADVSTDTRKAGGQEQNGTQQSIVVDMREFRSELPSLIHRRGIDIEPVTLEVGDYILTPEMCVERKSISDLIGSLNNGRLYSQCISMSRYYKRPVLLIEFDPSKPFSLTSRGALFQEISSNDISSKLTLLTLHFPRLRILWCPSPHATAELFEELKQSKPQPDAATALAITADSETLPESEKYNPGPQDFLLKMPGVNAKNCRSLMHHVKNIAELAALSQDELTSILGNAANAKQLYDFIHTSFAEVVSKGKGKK
Entries and their pKd values follow.
pKd is defined as minus the log10 of a concentration measured in mol/L.

COc1ccc2nc3cc(Cl)ccc3c(Nc3ccc(O)c(CN4CCN(C)CC4)c3)c2c1 : 6.85

Here is another molecule to look at.
Enquiry: Report pKd for `CN(C)CCN1CCN(Cc2cc(Nc3c4ccc(Cl)cc4nc4ccc(O)cc34)ccc2O)CC1`
Return: 7.07

* * *

target: DNA excision repair protein ERCC-1/DNA repair endonuclease XPF (Homo sapiens) (UniProt P07992+Q92889); assay: Inhibition of human His-tagged ERCC1-XPF expressed in Escherichia coli BL21 (DE3) cells using 6-FAM-5'CAGCGCTCGG(20T)CCGAGCGCTG-3'-dabcyl at 10 uM measured for 12 mins by fluorescence incision assay
Active and inactive are the calls of the source. No cut-off for these calls is given here.
Select the correct class. Options are 1.0 for active, 0.0 for inactive and nothing else.

Oc1ccc2nc3cc(Cl)ccc3c(Cl)c2c1 : 1.0

Enquiry: What was the test verdict on `CN1CCN(Cc2cc(Nc3c4ccc(Cl)cc4nc4ccc(O)cc34)ccc2O)CC1` ?
Return: 1.0

Enquiry: Per the assay record, what outcome was assigned to `COc1ccc2nc3cc(Cl)ccc3c(Cl)c2c1` ?
Return: 0.0

Enquiry: Give the logged outcome of this assay for the following molecule: `COc1ccc2nc3cc(Cl)ccc3c(Nc3ccc(O)c(CN4CCN(C)CC4)c3)c2c1`
Return: 1.0

Enquiry: Name the outcome recorded for `COc1ccc2c(Nc3ccc(O)cc3)ccnc2c1` in the assay.
Return: 0.0

Enquiry: Recorded test call requested for `CN1CCN(Cc2cc(N)ccc2O)CC1`
Return: 0.0

Enquiry: Which outcome was entered for the molecule `CN(C)CCN1CCN(Cc2cc(Nc3c4ccc(Cl)cc4nc4ccc(O)cc34)ccc2O)CC1` in this test?
Return: 1.0
